Reference source: patent US10508077B2

Target: Full length human recombinant HDAC8 protein (Homo sapiens, UniProt Q9BY41)
Construct: Full length human recombinant HDAC8 protein was expressed in baculoviral system
Sequence (Q9BY41 1-377): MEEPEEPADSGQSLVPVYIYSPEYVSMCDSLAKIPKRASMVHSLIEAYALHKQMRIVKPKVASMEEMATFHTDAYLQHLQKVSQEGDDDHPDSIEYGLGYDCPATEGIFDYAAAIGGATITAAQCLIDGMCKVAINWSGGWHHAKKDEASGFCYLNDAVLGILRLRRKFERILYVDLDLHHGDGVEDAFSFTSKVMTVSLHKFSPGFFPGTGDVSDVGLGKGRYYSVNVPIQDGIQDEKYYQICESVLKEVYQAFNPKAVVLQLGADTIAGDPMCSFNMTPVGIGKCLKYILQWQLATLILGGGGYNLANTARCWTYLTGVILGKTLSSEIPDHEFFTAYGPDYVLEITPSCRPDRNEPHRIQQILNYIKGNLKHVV
Assay: In vitro histone deacetylase assay: enzymatic HDAC8 assay, electrophoretic mobility shift
Details: substrate RHKK(Ac)-NH2, 1 nM enzyme, compounds listed under IC50 range headings
reported property: IC50

Exercise: Form field: IC50 recorded for COc1ccc(CC(=O)NC2CCN(c3ccccc3/C=C/C(=O)NO)CC2)cc1 [Example I-9] with Full length human recombinant HDAC8 protein (Homo sapiens, UniProt Q9BY41) (enter value)
Solution: 1000 to 10000 nM

Exercise: Further, for O=C(/C=C/c1ccccc1N1CCC(NC(=O)c2ccc3[nH]ccc3c2)CC1)NO [Example I-153] ?
Solution: < 1000 nM

Exercise: And then CNc1ccc(C(=O)NC2CCN(c3ccccc3/C=C/C(=O)NO)CC2)cc1 [Example I-133] , what is it?
Solution: < 1000 nM

Exercise: Also O=C(/C=C/c1ccccc1NCc1cccc(N2CCOCC2)c1)NO [Example I-97] ?
Solution: < 1000 nM

Exercise: Next record, please: O=C(/C=C/c1ccccc1NCC1CCCCC1)NO [Example I-55]
Solution: < 1000 nM

Exercise: Next compound up: O=C(/C=C/c1ccccc1C(=O)N1CCN(c2ccncc2)CC1)NO [II-20]
Solution: < 1000 nM

Exercise: Similarly, O=C(/C=C/c1ccccc1N1CCN(S(=O)(=O)c2ccccc2OC(F)(F)F)CC1)NO [Example I-29] ?
Solution: 1000 to 10000 nM

Exercise: And O=C(/C=C/c1ccccc1N1CCN(C(=O)c2ccc(C(F)(F)F)cc2)CC1=O)NO [Example I-532] ?
Solution: < 1000 nM

Exercise: Would you kindly repeat that for O=C(/C=C/c1ccccc1N1CCN(CCCc2ccccc2)CC1)NO [Example I-166] ?
Solution: < 1000 nM

Exercise: And the next one, COc1ccc(S(=O)(=O)N2CCN(c3ccccc3/C=C/C(=O)NO)CC2)cc1OC [Example I-256] ?
Solution: < 1000 nM

Exercise: Next record, please: O=C(/C=C/c1ccccc1N1CCC(NS(=O)(=O)C2CC2)CC1)NO [Example I-241]
Solution: < 1000 nM

Exercise: And for Cn1cc(-c2ncc(C(=O)Nc3ccccc3/C=C/C(=O)NO)s2)cn1 [Example I-285] ?
Solution: < 1000 nM

Exercise: Similarly, O=C(/C=C/c1ccccc1N1CCN(C(=O)C2(c3ccccc3)CC2)CC1)NO [Example I-36] ?
Solution: 1000 to 10000 nM

Exercise: Repeat for the following compound: O=C(/C=C/c1ccccc1N1CCN(CC2CCOC2)CC1)NO (centres unmarked) [Example I-167]
Solution: < 1000 nM

Exercise: Would you mind doing O=C(/C=C/c1ccccc1C(=O)N1C2CCC1CC2)NO [II-12] as well?
Solution: 1000 to 10000 nM

Exercise: Also O=C(/C=C/c1ccccc1NC(=O)c1cnc(-c2ccccc2F)s1)NO [Example I-311] , if possible.
Solution: < 1000 nM

Exercise: Same question, O=C(/C=C/c1ccccc1NC(=O)c1ccc(OC(F)F)cc1)NO [Example I-70] this time
Solution: < 1000 nM

Exercise: Further, for O=C(/C=C/c1ccccc1N1CCN(C(=O)C2(C(F)(F)F)CC2)CC1)NO [Example I-322] ?
Solution: < 1000 nM

Exercise: CS(=O)(=O)c1ccc(CNc2ccccc2/C=C/C(=O)NO)cc1 [Example I-95] ?
Solution: < 1000 nM

Exercise: Next compound: Cn1ccnc1S(=O)(=O)N1CCN(c2ccccc2/C=C/C(=O)NO)CC1 [Example I-252]
Solution: < 1000 nM

Exercise: Continue with O=C(/C=C/c1ccccc1N1CCC(NS(=O)(=O)c2ccc(F)cc2)CC1)NO [Example I-222]
Solution: < 1000 nM

Exercise: Try this compound too: O=C(/C=C/c1ccccc1NC(=O)C1(O)CCC1)NO [Example I-6]
Solution: 1000 to 10000 nM

Exercise: Now consider O=C(/C=C/c1ccccc1NC(=O)c1ccnc(N2CCOCC2)c1)NO [Example I-305] .
Solution: < 1000 nM

Exercise: Continue with COc1ccccc1S(=O)(=O)N1CCN(c2ccccc2/C=C/C(=O)NO)CC1 [Example I-31]
Solution: 1000 to 10000 nM

Exercise: Please answer likewise for CS(=O)(=O)CCCC(=O)N1CCN(c2ccccc2/C=C/C(=O)NO)CC1 [Example I-201]
Solution: < 1000 nM

Exercise: Now consider O=C(/C=C/c1ccccc1NCc1ccnc(N2CCOCC2)c1)NO [Example I-98] .
Solution: < 1000 nM

Exercise: And for COc1cc(CC(=O)N2CCN(c3ccccc3/C=C/C(=O)NO)CC2)ccc1O [Example I-203] ?
Solution: < 1000 nM

Exercise: # iterate: O=C(/C=C/c1ccccc1N1CCN(S(=O)(=O)c2cccc3cnccc23)CC1)NO [Example I-254]
Solution: < 1000 nM

Exercise: Another: CN(C)CC1(CN2CCN(c3ccccc3/C=C/C(=O)NO)CC2)CCCC1 [Example I-186]
Solution: < 1000 nM

Exercise: Follow-up item: O=C(/C=C/c1ccccc1N1CCN(C(=O)c2cc3ccccc3[nH]2)CC1)NO [Example I-25]
Solution: 1000 to 10000 nM

Exercise: What about this compound? O=C(/C=C/c1ccccc1N1CCC(NS(=O)(=O)c2ccc(C(F)(F)F)cc2)CC1)NO [Example I-224]
Solution: < 1000 nM

Exercise: Now consider O=C(/C=C/c1ccccc1NC(=O)C1CCC2(CC1)CC2)NO [Example I-84] .
Solution: < 1000 nM

Exercise: Param item: O=C(/C=C/c1ccccc1NC(=O)c1ccccc1)NO [Example I-506, 2,2,2-trifluoroacetate]
Solution: < 1000 nM

Exercise: What about this compound? CN(Cc1cccc(C(F)(F)F)c1)c1ccccc1/C=C/C(=O)NO [Example I-119]
Solution: < 1000 nM

Exercise: Would you kindly repeat that for O=C(/C=C/c1ccccc1C(=O)NC1CCCCC1)NO [II-13] ?
Solution: < 1000 nM
